- measurement.description: TGA thermal decomposition of DOPO and amino DOPO derivatives
- Type: physicochemical
- condition: several values = multiple decomposition stages
readout.label: TdMax: Temperature for maximum decomposition rate (°C)
Give a bare numeral; the unit °C is implied.

Take a look at these entries with their results.
O=P1(NCCN(CCNP2(=O)Oc3ccccc3-c3ccccc32)P2(=O)Oc3ccccc3-c3ccccc32)Oc2ccccc2-c2ccccc21 (stereo not shown)
385
O=P1(NCCOP2(=O)Oc3ccccc3-c3ccccc32)Oc2ccccc2-c2ccccc21 (stereo not shown)
387
O=P1(N2CCN(P3(=O)Oc4ccccc4-c4ccccc43)CC2)Oc2ccccc2-c2ccccc21 (stereo not shown)
433
C=CCNP1(=O)Oc2ccccc2-c2ccccc21 (stereo not shown)
295
O=P1(NCCNP2(=O)Oc3ccccc3-c3ccccc32)Oc2ccccc2-c2ccccc21 (stereo not shown)
415

Next:
Problem: Would you mind telling me what TdMax: Temperature for maximum decomposition rate value was observed for O=[PH]1Oc2ccccc2-c2ccccc21 (stereo not shown) [DOPO, reference compound] ?
Result: 267

* * *

- measurement.description: TGA thermal decomposition of DOPO and amino DOPO derivatives
- Assay type: physicochemical
Td1: Temperature for 10% weight loss strictly under 300 °C means fulfilled; at 300 °C or over means not fulfilled.

O=P1(NCCOP2(=O)Oc3ccccc3-c3ccccc32)Oc2ccccc2-c2ccccc21 (stereo not shown) [EAB-DOPO]
not fulfilled
O=[PH]1Oc2ccccc2-c2ccccc21 (stereo not shown) [DOPO, reference compound]
fulfilled
C=CCNP1(=O)Oc2ccccc2-c2ccccc21 (stereo not shown) [AA-DOPO]
fulfilled
O=P1(NCCNP2(=O)Oc3ccccc3-c3ccccc32)Oc2ccccc2-c2ccccc21 (stereo not shown) [EDAB-DOPO]
not fulfilled
O=P1(N2CCN(P3(=O)Oc4ccccc4-c4ccccc43)CC2)Oc2ccccc2-c2ccccc21 (stereo not shown) [PB-DOPO]
not fulfilled

Problem: Consider the molecule CCO[Si](CCCNP1(=O)Oc2ccccc2-c2ccccc21)(OCC)OCC (stereo not shown) [TESPA-DOPO] . Is its Td1: Temperature for 10% weight loss strictly less than 300 °C?
Result: fulfilled

* * *

- measurement.description: Water solubility of DOPO compounds
- Assay type: physicochemical
- condition: water; 25° C.; read-out: solubilitiy FR in water mg/L
readout.label: solubility (mg/L)
Give a bare numeral; the unit mg/L is implied.

O=P1(NCCNP2(=O)Oc3ccccc3-c3ccccc32)Oc2ccccc2-c2ccccc21 (centres unmarked) [EDAB-DOPO]
393

Next:
Problem: Would you mind telling me what solubility value was observed for O=P1(NCCN(CCN(CCN(CCNP2(=O)Oc3ccccc3-c3ccccc32)P2(=O)Oc3ccccc3-c3ccccc32)P2(=O)Oc3ccccc3-c3ccccc32)P2(=O)Oc3ccccc3-c3ccccc32)Oc2ccccc2-c2ccccc21 (centres unmarked) [TEPA-PDOPO, tetraethylenepentaamine DOPO] ?
Result: 15.4

* * *

- measurement.description: Water solubility of DOPO compounds
- Format: physicochemical
- condition: water; 90° C.; read-out: solubilitiy FR in water mmol/L
readout.label: solubility (mmol/L)
Give a bare numeral; the unit mmol/L is implied.

O=P1(NCCN(CCN(CCN(CCNP2(=O)Oc3ccccc3-c3ccccc32)P2(=O)Oc3ccccc3-c3ccccc32)P2(=O)Oc3ccccc3-c3ccccc32)P2(=O)Oc3ccccc3-c3ccccc32)Oc2ccccc2-c2ccccc21 (centres unmarked)
0.65

Problem: Would you mind telling me what solubility value was observed for O=P1(NCCNP2(=O)Oc3ccccc3-c3ccccc32)Oc2ccccc2-c2ccccc21 (centres unmarked) ?
Result: 1.03
